Here the recorded Kd is given for each entry.
Target: T1, PUF4 RNA-binding domain (Saccharomyces cerevisiae, UniProt P25339 537-888)
T1 sequence: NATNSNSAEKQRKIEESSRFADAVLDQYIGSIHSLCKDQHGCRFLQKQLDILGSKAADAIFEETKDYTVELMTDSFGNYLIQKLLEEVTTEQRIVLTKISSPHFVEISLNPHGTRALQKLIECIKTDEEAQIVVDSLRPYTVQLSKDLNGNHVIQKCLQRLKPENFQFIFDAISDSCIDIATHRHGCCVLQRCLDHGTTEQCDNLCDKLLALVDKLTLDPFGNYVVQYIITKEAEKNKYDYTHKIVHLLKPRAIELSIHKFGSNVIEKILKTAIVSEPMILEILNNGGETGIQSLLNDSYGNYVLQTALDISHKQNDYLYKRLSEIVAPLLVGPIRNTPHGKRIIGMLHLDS
Test: Mg; RNA-MaP; 20 mM Na-HEPES pH 7.4, 30 mM KOAc, 0.75 mM MgCl2, 0.1% Tween-20, 5% glycerol, 0.1 mg/mL BSA, 2 mM DTT; 25 C; 0.0125-409.6 nM protein
Conditions: tags: N-His6-TEV cleaved; C-SNAP kept, Cy3B-labelled; label: tethered on chip by stalled RNA polymerase
READOUT_NAME: Kd

>  <BINDER>
Id_ii_S2_P5E.2_K5.1_C5.2_[C-2T]_H5.1_A5.1_F5.1_T5.2_[A12C] (ssRNA) RNA: UUUGAUUAAUAUGAUAUCGUUCUUUCUUUUGUAUUAUUAUCUUCUUUCUCGAUAUCAUAUUAAUCUUU

>  <READING>
1.86 nM

$$$$
>  <BINDER>
UCUCUUUGUACUAACUCUCUU (ssRNA) [Ic_S1_P4E.1_K4.1_C4.1_H4.1_A4.1_[T5C]_[A6T]_[T7A]_F4.1_[T8A]_[A9C]_T4.1]

>  <READING>
330 nM

$$$$
>  <BINDER>
Id_ii_S4_P5E.3_K5.2_C5.2_[C-2A]_H5.2_A5.1_F5.1_T5.2_[T11C] (ssRNA) RNA: UUUGACAACUGAUCGUUCUUUCUAUUAUAUUAUUACAUUCUUUCUCGAUCAGUUGUCUUU

>  <READING>
203 nM

$$$$
>  <BINDER>
UCUCUUUGUAUACCGGUCUCUU (ssRNA) [Ic_S1_P5E.1_K5.1_C5.1_H5.1_A5.1_[T6A]_[A7C]_F5.1_[T8C]_[T9G]_[A10G]_T5.1]

>  <READING>
470 nM

$$$$
>  <BINDER>
Id_ii_S4_P4E.4_K4.3_C4.2_[C-2T]_[T-1A]_H4.3_A4.1_F4.1_T4.2_[G10C]_[T11A] (ssRNA) RNA: UUUGACAACUGAUCGUUCUUUCUUAACACUAUUACAUUCUUUCUCGAUCAGUUGUCUUU

>  <READING>
> 2300 nM

$$$$
>  <BINDER>
UCUCUUCUUGUUCUCUAUAUAUAUCUCUU (ssRNA) [Ie_S1_P3E.2_K3.1_C3.2_H3.1_[+3TCTCT]_A3.1_F3.1_T3.2]

>  <READING>
68.4 nM

$$$$
>  <BINDER>
UCUCUUUCUAUUUAUCUCUU (ssRNA) [Ib_S1_P3E.1_K3.1_C3.1_H3.1_[G2C]_A3.1_[A6T]_F3.1_T3.1]

>  <READING>
> 2300 nM

$$$$
>  <BINDER>
UCUCUUUCUCUGUAUAUUAUCUCUU (ssRNA) [Ie_S1_P4E.1_K4.1_C4.1_H4.1_[+1CTCT]_A4.1_F4.1_T4.1]

>  <READING>
0.881 nM

$$$$
>  <BINDER>
Ic_S4_P3E.1_K3.1_C3.1_H3.1_A3.1_[T5A]_[A6T]_F3.1_[A8G]_T3.1 (ssRNA) RNA: UUUGACAACUGAUCGUUCUUUCUUGUAAUUGUUCUUUCUCGAUCAGUUGUCUUU

>  <READING>
220 nM

$$$$
>  <BINDER>
UCUCUUUUUUGUAUUUAAGUUCUCUU (ssRNA) [Id_iii_S1_P4E.9_K4.5_C4.3_[C-2T]_H4.1_A4.2_F4.2_T4.2]

>  <READING>
618 nM

$$$$
>  <BINDER>
Ic_S4_P4E.1_K4.1_C4.1_H4.1_A4.1_[A6T]_[T7G]_F4.1_[T8C]_[A9G]_T4.1 (ssRNA) RNA: UUUGACAACUGAUCGUUCUUUCUUGUAUUGCGUUCUUUCUCGAUCAGUUGUCUUU

>  <READING>
593 nM

$$$$
>  <BINDER>
Ib_S2_P4E.1_K4.1_C4.1_H4.1_[A4T]_A4.1_[A6C]_F4.1_T4.1 (ssRNA) RNA: UUUGAUUAAUAUGAUAUCGUUCUUUCUUGUUUCUUAUUCUUUCUCGAUAUCAUAUUAAUCUUU

>  <READING>
23.1 nM

$$$$
